Target: HGFA (Homo sapiens)
Construct: purchased R&D Systems 1514-SE-010
Assay: Fluorogenic kinetic enzyme inhibitor assay, HGFA
Format: biochemical
Conditions: 30 min incubation, Boc-QLR-AMC at Km; read-out: HGFA IC50
Consider the following molecules; for each one, report its IC50.
Answers are plain numbers, in nM.

Study these solved cases before continuing.
CC(=O)N[C@H]1Cc2ccc(cc2)OCCCC[C@@H](C(=O)N[C@@H](CCCNC(=N)N)C(=O)c2nc3ccccc3s2)NC(=O)[C@H](Cc2c[nH]c3ccccc23)NC1=O [VD4158]	85.2
CC(=O)N[C@H]1CC(=O)NCCCC[C@@H](C(=O)N[C@@H](CCCNC(=N)N)C(=O)c2nc3ccccc3s2)NC(=O)[C@H](CCC(N)=O)NC1=O [VD3152]	16100
CC(=O)N[C@H]1Cc2ccc(cc2)Oc2cccc(c2)C[C@@H](C(=O)N[C@@H](CCCNC(=N)N)C(=O)c2nc3ccccc3s2)NC(=O)[C@H](CC(C)C)NC1=O [VD5064B]	61.4

Batch of 2 molecules: report IC50 for each.
1. CC(=O)N[C@H]1CCCCn2cc(nn2)C[C@H](C(=O)N[C@@H](CCCNC(=N)N)C(=O)c2nc3ccccc3s2)NC(=O)[C@H](CC(C)C)NC1=O [VD4118B]
2. CC(=O)N[C@@H](CCCCN)C(=O)N[C@@H](CCC(N)=O)C(=O)N[C@@H](CC(C)C)C(=O)N[C@@H](CCCNC(=N)N)C(=O)c1nc2ccccc2s1 [ZFH7006]

// result
10900
60

---

For each record, write down the corresponding pIC50.
Target: hepsin (Homo sapiens, UniProt P05981)
Construct: purchased R&D Systems 4776-SE-010
Sequence (P05981 163-417 limits assumed): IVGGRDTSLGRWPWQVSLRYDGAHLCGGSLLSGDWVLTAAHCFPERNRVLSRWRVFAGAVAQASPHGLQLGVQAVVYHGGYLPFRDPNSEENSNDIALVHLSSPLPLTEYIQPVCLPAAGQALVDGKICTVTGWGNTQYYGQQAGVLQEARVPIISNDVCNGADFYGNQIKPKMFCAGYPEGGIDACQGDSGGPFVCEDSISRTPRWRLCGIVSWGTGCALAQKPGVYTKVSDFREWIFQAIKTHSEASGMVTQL
Sequence (P05981 1-162 partner limits assumed): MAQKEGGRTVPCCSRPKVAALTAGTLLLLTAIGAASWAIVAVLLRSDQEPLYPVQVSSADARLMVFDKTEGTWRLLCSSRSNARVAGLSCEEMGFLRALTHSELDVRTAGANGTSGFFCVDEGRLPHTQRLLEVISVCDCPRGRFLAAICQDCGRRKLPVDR
Assay: Fluorogenic kinetic enzyme inhibitor assay, hepsin
Format: biochemical
Settings: 30 min incubation, Boc-QAR-AMC at Km; read-out: Hepsin IC50
Numbers only, as −log10 of the molar value.

CC(=O)N[C@H]1Cc2ccc(cc2)OC/C=C\C[C@@H](C(=O)N[C@@H](CCCNC(=N)N)C(=O)c2nc3ccccc3s2)NC(=O)[C@@H](Cc2c[nH]c3ccccc23)NC1=O	9.16
CC(=O)N[C@H]1Cc2ccc(cc2)OCCCC[C@@H](C(=O)N[C@@H](CCCNC(=N)N)C(=O)c2nc3ccccc3s2)NC(=O)[C@@H](Cc2c[nH]c3ccccc23)NC1=O [8b]	9.27

API: the following record is the query input.
// query Query: pIC50; subject: `CC(=O)N[C@H]1Cc2ccc(cc2)OCCCC[C@@H](C(=O)N[C@@H](CCCNC(=N)N)C(=O)c2nc3ccccc3s2)NC(=O)[C@H](CC(C)C)NC1=O`
// result 9.04

---

Molecular target: HGFA (Homo sapiens, UniProt Q04756)
Construct: purchased R&D Systems 1514-SE-010
Sequence (Q04756 408-655 limits assumed): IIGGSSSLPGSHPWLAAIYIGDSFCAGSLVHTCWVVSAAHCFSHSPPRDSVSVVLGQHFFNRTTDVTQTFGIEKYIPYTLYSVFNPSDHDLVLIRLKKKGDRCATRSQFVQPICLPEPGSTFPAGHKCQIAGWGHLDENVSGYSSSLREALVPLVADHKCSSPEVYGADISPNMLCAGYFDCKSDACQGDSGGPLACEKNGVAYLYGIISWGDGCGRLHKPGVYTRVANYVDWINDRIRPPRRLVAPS
Sequence (Q04756 373-407 partner limits assumed): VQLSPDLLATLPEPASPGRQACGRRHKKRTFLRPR
Assay: Fluorogenic kinetic enzyme inhibitor assay, HGFA
Type: biochemical
Conditions: read-out: HGFA IC50
pIC50: −log10 of the molar value. Numbered stars: 1 amine (or outer) side, 2 acyl side, 3 side chain; on linkers, the order of the positions; unused ones are H or OH. Square brackets hold non-standard residues; d marks the D form. Peptide text beside a SMILES is read from it. X1 = N=C(N)NCCC[C@H](N[*:1])C(=O)c1nc2ccc(C(=O)[*:2])cc2s1
Please enter YES where pIC50 is greater than or equal to 7, and NO where it is lower.

Consider the worked cases shown below.
CC(=O)N[C@@H](Cc1c[nH]c2ccccc12)C(=O)N[C@@H](Cc1ccccc1)C(=O)N[C@@H](CCCNC(=N)N)C(=O)c1nc2ccc(C(=O)O)cc2s1	NO
CC(=O)N[C@@H](CO)C(=O)NCc1cccc(CC(=O)N[C@@H](CC(C)C)C(=O)N[C@H](CCCNC(=N)N)C(=O)c2nc3ccccc3s2)c1	NO

// query Reported pIC50 reaches at least 7 for CCC(C)[C@H](NC(C)=O)C(=O)N[C@H](C(=O)N[C@@H](Cc1ccccc1)C(=O)N[C@@H](CCCNC(=N)N)C(=O)c1nc2ccccc2s1)C(C)O (stereo partly shown) ?
// result NO

// query Moving on to CC(=O)N[C@@H](CO)C(=O)N[C@H](Cc1c[nH]c2ccccc12)C(=O)N[C@@H](CC(C)C)C(=O)N[C@@H](CCCNC(=N)N)C(=O)c1nc2ccc(C(=O)N[C@H](C(N)=O)C(C)C)cc2s1 [JH1114] (Ac-S[dW]L[X1]V-NH2)
// result YES

// query What do we get for `CC(=O)N[C@H](Cc1c[nH]c2ccccc12)C(=O)N[C@@H](CCCCNC(=N)N)C(=O)N[C@@H](CCC(C)C)C(=O)N[C@@H](CCCNC(=N)N)C(=O)c1nc2ccccc2s1` ?
// result YES

// query Next record, please: CCC(C)[C@H](NC(C)=O)C(=O)N[C@@H](CCC(N)=O)C(=O)N[C@@H](Cc1c[nH]c2ccccc12)C(=O)N[C@@H](CCCNC(=N)N)C(=O)c1nc2ccccc2s1 (stereo partly shown)
// result NO

// query Proceed to CCC(C)[C@H](NC(C)=O)C(=O)N[C@@H](CCC(N)=O)C(=O)N[C@@H](C)C(=O)N[C@@H](CCCNC(=N)N)C(=O)c1nc2ccccc2s1 (stereo partly shown)
// result NO

// query Also, `N=C(N)NCCC[C@@H](NC(=O)[C@H](Cc1ccccc1)NC(=O)[C@H](CCC(N)=O)NCc1ccccc1)C(=O)c1nc2ccccc2s1` please.
// result NO
